Test: protein stability index of a GFP-peptide fusion (GPS, HEK-293T) (PSI 1-6); higher = more stable;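 note: 24-mer peptide tiles fused after GFP, lentivirally expressed, FACS-sorted into six equal bins by GFP/DsRed ratio, decoded by Illumina sequencing, PSI is the read-weighted mean bin number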
Conditions: treatment: MLN4924 1 uM, 8 h; c terminus: a fixed tail appended
Property Name: protein stability index

INSERT INTO measurements (polymer_sequence, readout_number) VALUES
  ('SRREREPEPPAAVDFLEPDSGTCP [FCHO1]', 5.44),
  ('HLRNKTEDLEATSEHFKTTSQKVA [VAMP8]', 5.07),
  ('KLIATSNKPAVKLLYNRSNNKYSY [KCTD10]', 2.49),
  ('REEDFPSLREYNDFLEEVEEIVFN [MNAT1]', 3.73),
  ('TLRQKTVDWRRVSRLQEDPEGTEN [SLA]', 4.79),
  ('DILMEFGHLFPPPTPIFAGGANDR [WSB1]', 2.51),
  ('LNFKAEPESETSILLSWTPPRSDT [PTPRD]', 3.45),
  ('IGTQGPLENTYRDFWLMVWEQKVL [PTPN9]', 1.79),
  ('LAATQGLAHMIAECKKLFQVPEEM [DLC1]', 2.47),
  ('ESDVKHRTRDYKKTSLAPYVKVFE [PRIM1]', 3.62),
  ('RTTSVRCRGIPRGPVRPAIPPPLS [NEK8]', 3.64),
  ('GPAPPPLPPALVPAGGLAPGGGRG [WAS]', 5.09),
  ('RKLLEGEESRISVPVHSFASLNIK [PRPH]', 3.31),
  ('LQQLLVLQPEQQLNIYKTLKTHLI [CDS1]', 2.17),
  ('HRLGSPYGHCTAGGEGVEVELLHN [SCNN1D]', 3.82),
  ('AYGHRQCLELVSCFVLFSLTHTHT [ANKRD44]', 3.3),
  ('IAWIKDKLLHIYYQNSIDDRLLVE [PDS5B]', 2.43),
  ('KESLCISITVSKVDKDQPSILNSC [FBXO34]', 2.09),
  ('RKRRLFCTMEPEPVQPGMLIDVCK [TRIM35]', 2.69),
  ('QAASRIIRNEQFAIRRFQSMPVRL [CDC25B]', 2.74),
  ('RWTSYRFSRVCRLHRGQLSLFCLE [TRIM35]', 2.23),
  ('NQGYLSEAGASLVDQKLELNIVPR [PI4K2A]', 4.33),
  ('VGVFLDFESGSVSFLNVTKSSLIW [TRIM43]', 2.51),
  ('HSSWTPPNAQYWSQFHSVRPQGPQ [DNAJC4]', 3.34),
  ('IAVLGIVMLKRIHSLYRRTGASFQ [SCAMP3]', 2.25),
  ('KEERKTEVVMNSQQTPVGTPKDKR [PALM]', 5.36),
  ('YRRHVLGIVLQGPALCFAAAIFSL [TMEM175]', 2.85);

###

Assay: protein stability index of a GFP-peptide fusion (GPS, HEK-293T) (PSI 1-6); higher = more stable
Conditions: treatment: DMSO; c terminus: native
Use 3 as the dividing line for protein stability index, with the line itself on the fulfilled side and lower values as not fulfilled.

INSERT INTO assay_data (polymer_sequence, cat) VALUES
  ('TIVEEVQDGKVISSREQVHQTTR [KRT17]', 'fulfilled'),
  ('YKKAVGLKLKQEKKEAYLKLKQG [WDR88]', 'not fulfilled'),
  ('NLQSLKFQGGHGPAATLLRRSKT [RIPK4]', 'fulfilled'),
  ('HPPPSTPIKLEEGDGCAREYLLP [ADD1]', 'fulfilled'),
  ('YPENDWDTAAPVPQKDLEIFKNF [PRKX]', 'fulfilled'),
  ('YHSQDRYEFSSHITRGEHRFHMS [IKZF1]', 'not fulfilled');
